Would you kindly list pKi for each of these binders?
- target: huPA-H99Y-V41A (human)
- testName: enzyme inhibition (steady state, chromogenic substrate S-2444); about 2 nM enzyme (purified or conditioned medium of transfected cells) pre-incubated 15 min with varied peptide in HBS (10 mM HEPES pH 7.4, 140 mM NaCl) with 0.1% BSA at 37°C; substrate about KM; fit for competitive inhibition; highest peptide concentration 400 µM
Bridge positions count the residues as written; N and C are the ends. Square brackets hold non-standard residues; d marks the D form. Ends that are not written are not given here. Ala(1-amidino-4-piperidyl) = N=C(N)N1CCC(C[C@H](N)C(=O)O)CC1; Phe(4-guanidino) = N=C(N)Nc1ccc(C[C@H](N)C(=O)O)cc1
// returns pKi (minus log10 of molar concentration), number only

Notebook: CPAYS[Ala(1-amidino-4-piperidyl)]YLAC (disulfide 1-10; not fully specified) [Mupain-1-16 D9A] , pKi read as 6.32

Please fill in: pKi reported for CPAYS[Ala(1-amidino-4-piperidyl)]YLDC (disulfide 1-10; not fully specified) [mupain-1-16] = 5.71

Measured pKi of CPAYS[Phe(4-guanidino)]YLDC (disulfide 1-10) [mupain-1-12] : 5.80

These measurements were taken from paper PMC4278837.
